PROPERTY_NAME: melting point

Examples from the recorded data:
[
  {
    "CHEMICAL_SMILES": "COc1cc(C=C2C[C@H]3[C@@H]4CC=C5C[C@@H](O)CC[C@]5(C)[C@H]4CC[C@]3(C)C2=O)ccc1OCCCn1ccnc1",
    "melting point": "199 to 201 °C"
  },
  {
    "CHEMICAL_SMILES": "C[C@]12CC[C@H](O)CC1=CC[C@@H]1[C@@H]2CC[C@]2(C)C(=O)C(=Cc3cccc(OCCCn4ccnc4)c3)C[C@@H]12",
    "melting point": "211 to 212 °C"
  },
  {
    "CHEMICAL_SMILES": "COc1cc(C=C2C[C@H]3[C@@H]4CC=C5C[C@@H](OC(C)=O)CC[C@]5(C)[C@H]4CC[C@]3(C)C2=O)ccc1OCCCn1ccnc1",
    "melting point": "109 to 111 °C"
  }
]

Below are some compounds; for each one, tell me its melting point.
1. C[C@]12CC[C@H](O)CC1=CC[C@@H]1[C@@H]2CC[C@]2(C)C(=O)[C@@H](n3ccnc3)C[C@@H]12
2. COc1ccc(/C=C2\Cc3ccccc3C2=O)cc1OCCCn1ccnc1

["249 to 251 °C", "176 to 180 °C"]
